Reference source: PubChem BioAssay AID1963963

Test system: 958667-338-R-J2-PDC tumor spheroids viability
Procedure Text: Anticancer human tumor 958667-338-R-J2-PDC patient-derived colon adenocarcinoma cell line growth inhibition [PI3K]
Condition Label: curve of first compound; second compound 0.316 µM; spheroids with HUVEC and MSC
// reported IC50 per item

{"Compound": "CC(C)n1nc(-c2ccc3oc(N)nc3c2)c2c(N)ncnc21 + COc1c(OCCCN2CCOCC2)ccc2c3n(c(=NC(=O)c4cnc(N)nc4)nc12)CCN3", "IC50": "< 0.316 nM"}
{"Compound": "C[C@@H](NC(=O)c1ncnc(N)c1Cl)c1ncc(C(=O)Nc2cc(C(F)(F)F)c(Cl)cn2)s1 + CC(Nc1ncnc2nc[nH]c12)c1cc2cccc(Cl)c2c(=O)n1-c1ccccc1", "IC50": "> 10000 nM"}

Ask | Reported IC50 for Cn1nccc1Nc1nccc(-c2ccn(C(CO)c3ccc(Cl)c(F)c3)c(=O)c2)n1 (stereo unspecified) + CC(Nc1ccc2c(c1)OCCn1cc(N3C(=O)OCC3C(F)F)nc1-2)C(N)=O : what is it?
Reply | 2110 nM

###

Tested on: 958667-338-R-J2-PDC tumor spheroids viability
Procedure Text: Anticancer human tumor 958667-338-R-J2-PDC cell line growth inhibition [PI3K];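 note: spheroids exposed to compounds for seven days before readout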
Condition Label: second compound 0.01 µM; first compound 1 µM; stronger effect = lower value; spheroids with HUVEC and MSC
// reported viability, T/C per item
# unit: % | format: bare number

Take a look at these entries with their results.
{"Molecule": "CCCS(=O)(=O)Nc1ccc(F)c(C(=O)c2c[nH]c3ncc(-c4ccc(Cl)cc4)cc23)c1F + CC(Nc1ccc2c(c1)OCCn1cc(N3C(=O)OCC3C(F)F)nc1-2)C(N)=O", "viability, T/C, %": 99.9}
{"Molecule": "C#Cc1c(F)ccc2cc(O)cc(-c3ncc4c(N5CC6CCC(C5)N6)nc(OCC56CCCN5CC(F)C6)nc4c3F)c12 (stereo not drawn) + CC(Nc1ccc2c(c1)OCCn1cc(N3C(=O)OCC3C(F)F)nc1-2)C(N)=O", "viability, T/C, %": 97.3}

Ask | Reported viability, T/C for Cn1nccc1Nc1nccc(-c2ccn(C(CO)c3ccc(Cl)c(F)c3)c(=O)c2)n1 (stereo not drawn) + CC(Nc1ccc2c(c1)OCCn1cc(N3C(=O)OCC3C(F)F)nc1-2)C(N)=O : what is it?
Reply | 102

###

// reported viability, T/C per item
System: 958667-338-R-J2-PDC tumor spheroids viability
Procedure Text: Anticancer human tumor 958667-338-R-J2-PDC cell line growth inhibition [PI3K];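 note: spheroids exposed to compounds for seven days before readout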
Condition Label: second compound 0.0316 µM; first compound 0.316 µM; stronger effect = lower value; spheroids with HUVEC and MSC
# unit: % | format: bare number

Take a look at these entries with their results.
{"Compound": "CCN1CCN(Cc2ccc(Nc3ncc(F)c(-c4cc(F)c5nc(C)n(C(C)C)c5c4)n3)nc2)CC1 + CC(Nc1ncnc2nc[nH]c12)c1cc2cccc(Cl)c2c(=O)n1-c1ccccc1", "viability, T/C, %": 66.1}
{"Compound": "CC1(C)CCC(CN2CCN(c3ccc(C(=O)NS(=O)(=O)c4ccc(NCC5CCOCC5)c([N+](=O)[O-])c4)c(Oc4cnc5[nH]ccc5c4)c3)CC2)=C(c2ccc(Cl)cc2)C1 + Cc1nc(NC(=O)N2CCCC2C(N)=O)sc1-c1ccnc(C(C)(C)C(F)(F)F)c1", "viability, T/C, %": 83.5}
{"Compound": "C#Cc1c(F)ccc2cc(O)cc(-c3ncc4c(N5CC6CCC(C5)N6)nc(OCC56CCCN5CC(F)C6)nc4c3F)c12 (stereo not given) + CC(Nc1ncnc2nc[nH]c12)c1cc2cccc(Cl)c2c(=O)n1-c1ccccc1", "viability, T/C, %": 109}

Ask | Reported viability, T/C for CC1(C)CCC(Nc2ncc(C(F)(F)F)c(-c3c[nH]c4c(P(C)(C)=O)c(C#N)ccc34)n2)CN1 (stereo not given) + COc1c(OCCCN2CCOCC2)ccc2c3n(c(=NC(=O)c4cnc(N)nc4)nc12)CCN3 : what is it?
Reply | 65.9

Ask | Next: C=CC(=O)N1CCN(c2nc(=O)n(-c3c(C)ccnc3C(C)C)c3nc(-c4c(O)cccc4F)c(F)cc23)C(C)C1 (stereo not given) + COc1c(OCCCN2CCOCC2)ccc2c3n(c(=NC(=O)c4cnc(N)nc4)nc12)CCN3
Reply | 71.8
